- Experiment notes: RP, Waters ACQUITY UPLC BEH C18, 100 × 2.1 mm, 1.7 µm, 0.2 mL/min, estimated dead time 1.1 min; A: water + 0.1% formic acid, pH 3; B: methanol + 0.1% formic acid, pH 3; gradient (min/%B) 0/5 5/5 25/100 30/100 30.1/5 35/5
- Test context: stereoisomer not certain
Counter-ions that a name gives are not always drawn.
Experimental readout: LC retention time (min)

1. O=S(=O)(O)Oc1c[nH]c2ccccc12 [INDOXYL SULFATE]
2. O=C(O)c1ccc2ccccc2c1[O-] [1-HYDROXY-2-NAPHTHOATE]
Ask: Of 1 and 2 , whose reported LC retention time is the larger number? I would appreciate it if you answered with the label of your choice.
Result: 2

---

- Experiment notes: RP, Waters CORTECS T3, 100 × 2.1 mm, 2.7 µm, 0.1 mL/min, estimated dead time 2.2 min; A: water + 0.1% formic acid, pH 3; B: methanol + 0.1% formic acid, pH 3; gradient (min/%B) 0/5 5/5 25/95 25.1/100 35/100 35.1/5 45/5
- Test context: stereoisomer not certain
Experimental readout: LC retention time (min)

Please review the entries below; each comes with its answer.
Compound | Experimental readout | Measured value
CCOC(=O)Cc1c[nH]c2ccccc12 [ETHYL 3-INDOLEACETATE] | LC retention time | 22.1
Cc1cc2nc3c(=O)[nH]c(=O)nc-3n(CC(O)C(O)C(O)CO)c2cc1C (stereo not drawn) [RIBOFLAVIN] | LC retention time | 16

A. O=c1cccc[nH]1 [2-HYDROXYPYRIDINE]
B. O=C(O)c1cc(=O)c2cccc(O)c2[nH]1 [XANTHURENIC ACID]
C. CC(=O)OCC(=O)C1CCC2C3CCC4=CC(=O)CCC4(C)C3CCC12C (stereo not drawn) [DEOXYCORTICOSTERONE ACETATE]
D. O=c1[nH]cnc2nc[nH]c12 [HYPOXANTHINE]
Ask: Sort low-to-high on LC retention time, please. Respond with an ordered listing of the labels, as requested.
Result: D, A, B, C
(D: 2.72 min, A: 5.41 min, B: 13.9 min, C: 25.4 min)

1. C=Cc1c(C)c2cc3[nH]c(cc4nc(cc5nc(cc1[nH]2)C(C)=C5CCC(=O)O)C(CCC(=O)O)=C4C)c(C)c3C=C [PROTOPORPHYRIN]
2. CC1C(=O)Nc2ccccc21 (stereo not drawn) [3-METHYL-2-OXINDOLE]
Ask: Task for the reader: decide whether 1 or 2 has the larger LC retention time. In your reply, give the label of the chosen option.
Result: 1

---

- Experiment notes: RP, Waters CORTECS T3, 100 × 2.1 mm, 2.7 µm, 0.3 mL/min, estimated dead time 0.73 min; A: water + 0.1% formic acid, pH 3; B: methanol + 0.1% formic acid, pH 3; gradient (min/%B) 0/0 5/0 25/100 30/100 30.1/0 35/0
- Test context: stereoisomer not certain
Experimental readout: LC retention time (min)

Solved entries (count: 3):
Molecule | LC retention time / min
O=C(O)CCCCCCC(=O)O | 13.5
Nc1ccn(C2CC(O)C(COP(=O)(O)O)O2)c(=O)n1 (centres undefined) [2'-DEOXYCYTIDINE 5'-MONOPHOSPHATE] | 0.89
CC(C)=CCNc1ncnc2nc[nH]c12 | 12.8

a. CC(=O)NC(CC(N)=O)C(=O)O (centres undefined)
b. O=C(O)CCCCCC(=O)O [6-CARBOXYHEXANOATE]
Ask: Given a and given b , which shows the smaller recorded LC retention time? Lab log: write the label of the selected item as the result.
Result: a
(a: 0.89 min, b: 11.3 min)

I. Nc1ncnc2c1ncn2C1OC(COP(=O)(O)OP(=O)(O)OC2OC(CO)C(O)C(O)C2O)C(O)C1O (centres undefined)
II. CC1NC(=O)NC1CCCCCC(=O)O (centres undefined)
Ask: Of the two listed items, I and II , which carries the larger LC retention time figure? Respond using the label that marks the chosen record.
Result: II
(II: 13.2 min, I: 0.89 min)
